# Test system: UO-31 renal
# procedure details: NCI tumour cell line growth inhibition, 48 h

| smiles structure | TGI |
| --- | --- |
| CC[O-].CC[O-].O=C1C=C([O-])C(=O)c2ccccc21.O=C1C=C([O-])C(=O)c2ccccc21.[Ti+4] | > 100 µM |
| CCCCCCCCCN=C(N)c1ccc(N2CCN(c3ccc(C(N)=NCCCCCCCCC)cc3)CC2)cc1 | > 50 µM |
| CC(C)CCNC(=O)c1ccc(CNC(=O)/C=C/c2ccc3ccccc3c2)cc1 | > 100 µM |

* * *

# System: MALME-3M melanoma
# procedure details: NCI tumour cell line growth inhibition, 48 h

| compound | assay target | TGI |
| --- | --- | --- |
| CCN1CCN(Cc2ccc(Nc3ncc(F)c(-c4cc(F)c5nc(C)n(C(C)C)c5c4)n3)nc2)CC1 | MALME-3M melanoma | 10.5 µM |
| O=C1c2ccccc2C(=O)c2c1oc1cc(O)c(Cl)cc21 | MALME-3M melanoma | 2.51 µM |
| COc1ccccc1/C=C1\CCC(Cc2ccccc2)(CN(C)C)C1=O (configuration not stated) | MALME-3M melanoma | > 100 µM |
| COC(=O)c1cc(O)ccc1O | MALME-3M melanoma | > 100 µM |
| CCOC(=O)C1=C(C)NC2SC(=O)/C(=C\c3cccc(Cl)c3)N2C1c1ccccc1 (configuration not stated) | MALME-3M melanoma | > 100 µM |
| C/C=C1\Oc2ccc(OC)cc2S1(=O)=O | MALME-3M melanoma | > 100 µM |
| Cc1cc(NS(=O)(=O)c2ccc(NO)cc2)no1 | MALME-3M melanoma | > 100 µM |

* * *

# Tested on: NCI-H522 lung
# procedure details: NCI tumour cell line growth inhibition, 48 h
assay metric: TGI

| molecule | assay metric | reported result |
| --- | --- | --- |
| CC(=O)OCc1nnn2c1C(OC(C)=O)CC2 (stereo unspecified) | TGI | > 100 µM |
| CCn1c2ccccc2c2ccc(C3C4C(=O)N(c5cccc6ccccc56)C(=O)C4ON3C(C(N)=O)c3ccccc3)cc21 (stereo unspecified) | TGI | > 25 µM |
| COC(=O)c1cc(O)ccc1O | TGI | > 100 µM |
| COc1ccc(C[C@H]2COC(=O)[C@@H]2Cc2ccc(Br)cc2)cc1OC | TGI | > 71.1 µM |
| Cc1ccc2ncnc(N(C)C3CCCCC3)c2c1 | TGI | > 100 µM |
| COc1ccc2nc3cccc([N+](=O)[O-])c3c(NCCC(=O)O)c2c1 | TGI | > 10 µM |

* * *

Below, each entry is listed alongside its reported TGI.
# Tested on: A549 NSCLC
# procedure details: NCI tumour cell line growth inhibition, 48 h
assay metric: TGI

| compound | reported result |
| --- | --- |
| CCN1C(=O)/C(=c2\sc3n(c2=O)C2C(NN=3)N(CC)C(=O)N2CC)c2ccccc21 (stereo not given) | > 100 µM |
| COc1ccc2[nH]c(C(=O)OCc3ccc4c(Br)cc(Br)c(O)c4n3)cc2c1 | 3.54 µM |
| COC(=O)C1C(C(=O)O)C2(c3ccccc3)C(=O)C1(c1ccccc1)C(c1ccc(OC)cc1)=C2c1ccc(OC)cc1 (stereo not given) | 33.5 µM |
| CCCCCCCCCN=C(N)c1ccc(N2CCN(c3ccc(C(N)=NCCCCCCCCC)cc3)CC2)cc1 | 10.5 µM |
| COc1ccc(C[C@H]2COC(=O)[C@@H]2Cc2ccc(Br)cc2)cc1OC | > 100 µM |
| O=C(Cc1cc(O)ccc1O)NO | > 100 µM |
| COc1ccc2c(c1)OCC1c3cc(OC)c4ccccc4c3OC21 (stereo not given) | > 100 µM |
| CCOC(=O)c1c(-c2ccccc2)n2c(=O)cc(C)c3c(O)c(O)cc1c32 | 24.6 µM |
| CN1C(=O)C(N=Nc2ccc([N+](=O)[O-])cc2)SC1=S (stereo not given) | > 100 µM |
| c1ccc2c(c1)CCN1CCc3ccccc3C1C2 (stereo not given) | > 100 µM |
| Cc1csc2nc(-c3cc([N+](=O)[O-])c(Cl)cc3Cl)c(/C=N/N=C(N)N)n12 | 40.9 µM |
| COc1cc2c(Nc3ccc(-c4ccc(N)cc4)cc3)ncnc2c(OC)c1OC | > 100 µM |
| COc1ccc(OC)c(C2=C(c3cn(C)c4ccccc34)C(=O)NC2=O)c1 | > 25 µM |
| CC[C@]12C=CCN3CC[C@@]4(c5ccc(OC)cc5N(C)[C@H]4[C@@](O)(C(=O)OC)[C@@H]1OC(=O)CCC(=O)O[C@H]1CC[C@H]4[C@@H]5CCC6=CC(=O)CC[C@@H]6[C@H]5CC[C@]14C)[C@@H]32 | > 50 µM |
| Nc1ccc(Oc2ccc(C34CC5C6CC7(c8ccc(Oc9ccc(N)cc9)cc8)CC5C(C3)C(C7)C6C4)cc2)cc1 | > 100 µM |
| O=S(=O)(O)c1c(Cl)c(Cl)c(O)c2ncccc12 | 28.3 µM |
| COc1cc(/C=C2\CC3C4CCC5=CC(=O)CC[C@]5(C)C4CC[C@]3(C)C2=O)ccc1OCCN1CCCC1 (stereo not given in full) | > 100 µM |
| N#CC1=C(N)N=C(N2CCOCC2)C(C#N)C12Nc1ccccc1S2 (stereo not given) | > 100 µM |
| CCCCC/C=C\C=C\CCCCCCCCC(=O)OC | > 100 µM |
| CCCCCc1cc(/C=C2/N=C(c3ccc[nH]3)C=C2OC)[nH]c1C | 1.19 µM |
| COc1ccc2nc3c4c(nccc4c2c1)-c1ncccc1C3=O | 0.338 µM |
| CCOC(=O)C#Cc1cccc(C#CC(=O)OCC)c1 | 16.6 µM |
| CC1(C)N=C(C(N)=O)c2ncn(Cc3ccccc3)c2N1 | > 100 µM |
| Nc1ncnc2c1ccn2CC#CCO | > 100 µM |
| Nc1nc(N)c2cc(S(=O)(=O)c3ccc4ccccc4c3)ccc2n1 | > 100 µM |
| O=C(Nn1c(-c2ccccc2)nc2ccccc2c1=O)c1cccc([N+](=O)[O-])c1 | > 100 µM |
| Cc1c2c(n3c(nc4ccccc43)c1C#N)N(c1ccc(F)cc1)CC2 | > 100 µM |
| COc1cccc(CCn2c(N)c(-c3cc(Cl)cc(Cl)c3)c3ccc([N+](=O)[O-])cc3c2=O)c1 | > 100 µM |
| CN1CCS(=O)(=O)NC(Cc2ccccc2)C(=O)N2CCCC2C1=O (stereo not given) | > 100 µM |
| Nc1ccc(-c2nc3ccccc3s2)cc1CO | > 100 µM |
| COc1ccc2nc3cc([N+](=O)[O-])ccc3c(NCCO)c2c1 | 23.9 µM |
| O=C(/C=C(/C=C/c1cccc2[nH]ccc12)OB(F)F)/C=C/c1cccc2[nH]ccc12 | 14.2 µM |
| CCOC(=O)/C(C1=NCCN1C)=C(\O)c1ccccc1 | > 100 µM |
| CN1CCCS/C1=C1/SC(=S)N(c2ccccc2)C1=O | > 100 µM |
| CCOC(=O)C(C(=O)OCC)=C1C=C(c2ccccc2)c2ccccc21 | > 100 µM |
